molecular target: BCL-xL (Homo sapiens, UniProt Q07817); construct: endogenous in cells; experiment: BCL-xL degradation by immunoblot in 293T cells; assay type: cell-based; conditions: HEK-293T
Sequence (Q07817 whole entry): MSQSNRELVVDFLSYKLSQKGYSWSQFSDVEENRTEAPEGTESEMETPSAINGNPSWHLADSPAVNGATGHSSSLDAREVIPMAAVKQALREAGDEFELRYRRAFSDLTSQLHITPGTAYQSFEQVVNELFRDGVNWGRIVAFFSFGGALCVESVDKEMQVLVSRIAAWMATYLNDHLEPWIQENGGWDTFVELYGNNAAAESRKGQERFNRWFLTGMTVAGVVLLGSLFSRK
experimental endpoint: Dmax (%)
Please respond with the number in % and leave the unit unwritten.

1. Cc1ncsc1-c1ccc([C@H](C)NC(=O)[C@@H]2C[C@@H](O)CN2C(=O)[C@@H](NC(=O)CCCCCC(=O)N2CCN(CC[C@H](CSc3ccccc3)Nc3ccc(S(=O)(=O)NC(=O)c4ccc(N5CCN(CC6=C(c7ccc(Cl)cc7)CCC(C)(C)C6)CC5)cc4)cc3S(=O)(=O)C(F)(F)F)CC2)C(C)(C)C)cc1 = 92

Now consider a different compound.
[ask] Give recorded Dmax. Cc1ncsc1-c1ccc([C@H](C)NC(=O)[C@@H]2C[C@@H](O)CN2C(=O)[C@@H](NC(=O)CCCCCCCC(=O)N2CCN(CC3(C)CCC(c4ccc(Cl)cc4)=C(CN4CCN(c5ccc(C(=O)NS(=O)(=O)c6ccc(N[C@H](CCN7CCOCC7)CSc7ccccc7)c(S(=O)(=O)C(F)(F)F)c6)cc5)CC4)C3)CC2)C(C)(C)C)cc1 (some centres unmarked)
[reply] 96

###

assay: Viability (MTS) of Hela cells; format: cell-based, human; conditions: human, Hela cells, MTS absorbance 490, Conc 0.111111 uM, read-out: cell viability normalised to control wells (mean of three replicates)
experimental endpoint: viability at 72 h, 0.111111 uM (%)
Please respond with the number in % and leave the unit unwritten.

1. Cc1ncsc1-c1ccc([C@H](C)NC(=O)[C@@H]2C[C@@H](O)CN2C(=O)[C@@H](NC(=O)CCCCCC(=O)N2CCN(CC[C@H](CSc3ccccc3)Nc3ccc(S(=O)(=O)NC(=O)c4ccc(N5CCN(CC6=C(c7ccc(Cl)cc7)CCC(C)(C)C6)CC5)cc4)cc3S(=O)(=O)C(F)(F)F)CC2)C(C)(C)C)cc1 = 89.7

Now consider a different compound.
[ask] Give recorded viability at 72 h, 0.111111 uM. CC1(C)CCC(c2ccc(Cl)cc2)=C(CN2CCN(c3ccc(C(=O)NS(=O)(=O)c4ccc(N[C@H](CCN5CCOCC5)CSc5ccccc5)c(S(=O)(=O)C(F)(F)F)c4)cc3)CC2)C1
[reply] 89.9

###

test: Viability (MTS) of Hela cells; type: cell-based, human; details: human, Hela cells, MTS absorbance 490, Conc 0.111111 uM, read-out: cell viability normalised to control wells (single replicate)
experimental endpoint: viability at 72 h, 0.111111 uM (%)
Please respond with the number in % and leave the unit unwritten.

[ask] Give recorded viability at 72 h, 0.111111 uM. Cc1ncsc1-c1ccc([C@H](C)NC(=O)[C@@H]2C[C@@H](O)CN2C(=O)[C@@H](NC(=O)CCCCCC(=O)N2CCN(CC[C@H](CSc3ccccc3)Nc3ccc(S(=O)(=O)NC(=O)c4ccc(N5CCN(CC6=C(c7ccc(Cl)cc7)CCC(C)(C)C6)CC5)cc4)cc3S(=O)(=O)C(F)(F)F)CC2)C(C)(C)C)cc1
[reply] 92.2

###

test: Viability (MTS) of 293T cells; format: cell-based, human; conditions: human
experimental endpoint: viability at 72 h, 3 µM (%)
Please respond with the number in % and leave the unit unwritten.

[ask] Give recorded viability at 72 h, 3 µM. Cc1ncsc1-c1ccc([C@H](C)NC(=O)[C@@H]2C[C@@H](O)CN2C(=O)[C@@H](NC(=O)CCCCCC(=O)N2CCN(CC[C@H](CSc3ccccc3)Nc3ccc(S(=O)(=O)NC(=O)c4ccc(N5CCN(CC6=C(c7ccc(Cl)cc7)CCC(C)(C)C6)CC5)cc4)cc3S(=O)(=O)C(F)(F)F)CC2)C(C)(C)C)cc1 [DT2216]
[reply] 90.6
